Entries annotated with measured EC50
Test system: HIV
Assay: Anti-HIV assay: protection of HIV-infected MT-4 cells against cytopathic effect (trypan blue exclusion / MTT method)
Assay type: cell-based
Conditions: Human immunodeficiency virus 1, MT4, 120 h; HIV-infected MT-4 cells, five days after infection, MTT method; dose achieving 50 % protection; read-out: HIV (µM) ED₅₀
measured.parameter: EC50 (µM)

{"structure.notation": "C=NO[C@H]1C[C@H](n2cc(C)c(=O)[nH]c2=O)O[C@@H]1CO", "assay.system": "HIV", "measured.value": 17}
{"structure.notation": "NO[C@H]1C[C@H](n2cnc3c(N)ncnc32)O[C@@H]1CO", "assay.system": "HIV", "measured.value": 32}
{"structure.notation": "CC(C)=NO[C@H]1C[C@H](n2cc(C)c(=O)[nH]c2=O)O[C@@H]1CO", "assay.system": "HIV", "measured.value": 32}
{"structure.notation": "NO[C@H]1C[C@H](n2cnc3c(=O)[nH]c(N)nc32)O[C@@H]1CO", "assay.system": "HIV", "measured.value": 2.17}
{"structure.notation": "Cc1cn([C@H]2C[C@H](ONC=O)[C@@H](CO)O2)c(=O)[nH]c1=O", "assay.system": "HIV", "measured.value": 13}

---

Entries annotated with measured HIV (µM) TD₅₀
Tested on: MT-4 cells
Experiment: Cytotoxicity in mock-infected MT-4 cells (trypan blue exclusion / MTT method)
Assay type: cell-based
Conditions: human, 5 days
Description: The anti-HIV activity of the agents that are subject of the present invention was measured according to the method of E. De Clercq et al. (The Journal of Virological Methods, 16 : 171 - 185 (1987) and The Journal of Virological Methods, 20 : 309-321 (1988)). […] Alternatively, viability of the cells was determined by the tetrazolium-based colorimetric method (MTT method) as described in the Journal of Virological Methods, 20 : 309 - 321 (1988). […]

{"compound": "NO[C@H]1C[C@H](n2cnc3c(=O)[nH]c(N)nc32)O[C@@H]1CO [compound 5]", "HIV (µM) TD₅₀": 74.03}
{"compound": "CC(C)=NO[C@H]1C[C@H](n2cc(C)c(=O)[nH]c2=O)O[C@@H]1CO [compound 3, 3′-O-isopropylideneaminothymidine]", "HIV (µM) TD₅₀": 313}
{"compound": "C=NO[C@H]1C[C@H](n2cc(C)c(=O)[nH]c2=O)O[C@@H]1CO [compound 2, 3′-O-methylideneaminothymidine]", "HIV (µM) TD₅₀": 106}
{"compound": "Cc1cn([C@H]2C[C@H](ONC=O)[C@@H](CO)O2)c(=O)[nH]c1=O [compound 1, 3′-O-formamidothymidine]", "HIV (µM) TD₅₀": 144}
{"compound": "NO[C@H]1C[C@H](n2cnc3c(N)ncnc32)O[C@@H]1CO [compound 4]", "HIV (µM) TD₅₀": 1000}
